Read-out: growth arrest and DNA damage 45 (GADD45G), GADD45G (gene 10912)
ASSAY NAME: LTEA_HepaRG_GADD45G: Life Technologies and Expression Analysis (LTEA) Assay for growth arrest and DNA damage 45 (GADD45G) using HepaRG (AID 2283499)
CONDITIONS: mRNA level, 48 h; actives raise or lower the signal
Calls of active or inactive are those of the source. Rule for the calls: active = hit-call score of the fitted dose curve at least 0.9, where 1 is the maximum; inactive = score below 0.9.
Outcome codes: true for active, false for inactive

>  <COMPOUND>
COCc1cnc(C2=NC(C)(C(C)C)C(=O)N2)c(C(=O)O)c1 (configuration not stated)

>  <QUALITATIVE LABEL>
false

$$$$
>  <COMPOUND>
O=c1n(Cl)c(=O)n(Cl)c(=O)n1Cl

>  <QUALITATIVE LABEL>
false

$$$$
>  <COMPOUND>
CC(C)N1C(=O)c2ccccc2NS1(=O)=O

>  <QUALITATIVE LABEL>
false

$$$$
>  <COMPOUND>
CCCCC(O)(Cn1cncn1)c1ccc(Cl)cc1Cl (configuration not stated)

>  <QUALITATIVE LABEL>
true

$$$$
>  <COMPOUND>
COCC(C)N(C(=O)CCl)c1c(C)csc1C (configuration not stated)

>  <QUALITATIVE LABEL>
false

$$$$
>  <COMPOUND>
CS(=O)(=O)c1ccc(C(=O)C2C(=O)CCCC2=O)c([N+](=O)[O-])c1

>  <QUALITATIVE LABEL>
false

$$$$
>  <COMPOUND>
CCCCOCN(C(=O)CCl)c1c(CC)cccc1CC

>  <QUALITATIVE LABEL>
false

$$$$
>  <COMPOUND>
CC(C)C1(C)N=C(c2ncccc2C(=O)O)NC1=O (configuration not stated)

>  <QUALITATIVE LABEL>
false

$$$$
>  <COMPOUND>
CS(=O)(=O)c1cc(C(F)(F)F)ccc1C(=O)c1cnoc1C1CC1

>  <QUALITATIVE LABEL>
false

$$$$
>  <COMPOUND>
CCNP(=S)(OC)O/C(C)=C/C(=O)OC(C)C (configuration not stated)

>  <QUALITATIVE LABEL>
false

$$$$
>  <COMPOUND>
CCN(CC)C(=O)C(C)Oc1cccc2ccccc12 (configuration not stated)

>  <QUALITATIVE LABEL>
false

$$$$
>  <COMPOUND>
CCNC(=O)NC(=O)C(C#N)=NOC

>  <QUALITATIVE LABEL>
false

$$$$
